# Target: T1, N-10 peptide (PSMGFR minus 10 amino acids from the N-terminus)
# T1 construct: also called N-10 PSMGFR; PSMGFR N-10
# T1 peptide: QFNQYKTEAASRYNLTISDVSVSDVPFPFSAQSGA
# Assay Protocol: ELISA

Binder	binding result
45C11 mouse monoclonal antibody (antibody, V domains shown, raised against N+20/C-27; also called N+20/C-27 antibody 45C11) VH: EVQLQQSGADLVKPGASVKLSCTASGFNIKDTFMHWVKQRPEQGLEWIGRIDPANGNTKYDPKFQGKATITADTSSNTAYLQLSSLTSEDTAVYYCAKPYGNYGYYYALDYWGQGTSVTVSS VL: DVQITQSPSYLAASPGETITINCRASKSISKYLAWYQEKPGKTNKLLIYSGSTLQSGIPSRFSGSGSGTDFTLTISSLEPEDFAMYYCQQHNEFPWTFGGGTKLEIK	no binding
18B4 mouse monoclonal antibody (antibody, V domains shown, raised against PSMGFR; also called anti-PSMGFR antibody 18B4) VH: EVKLEESGGGLVQPGGSMKLSCAASGFTFNDAWMDWVRQSPEKGLEWVAEIRSTANIHTTYYAESVQGRFTISRDDSKSSVYLQMNSLRAEDTGIYYCTPLLYGFAYWGQGTLVTVSA VL: DVVMTQSPLSLPVSLGDQASISCRTSQSLVHSNGNTYLHWHLQKPGQSPKVLIYKVSSRFSGVPDRFSGSGSGTDFTLKISRVEAEDLGVYFCSQNTHVPYTFGGGTKLEIK	no binding
31A1 mouse monoclonal antibody (antibody, V domains shown, raised against N+20/C-27; also called N+20/C-27 antibody 31A1) VH: QVQLQQSGAELAKPGASVKMSCKASGYTFTSYWMHWVKQRPGQGLEWIGYINPSTGYTEYNQKFKDKATLTADKSSSTAYMQLSSLTSEDSAVYYCARAYIDYWGQGTTLTVSS VL: DVLMTQTPLSLPVSLGDQASFSCRSSQSIVHSNGNTYLEWYLQKPGQSPKLLIYKVSNRFSGVPDRFSGSGSGTDFTLKINRVEAEDLGVYYCFQVSHFPWTFGGGTKLEIK	no binding
